Target: UniProtKB P55212
Sequence (P55212 24-179 limits assumed): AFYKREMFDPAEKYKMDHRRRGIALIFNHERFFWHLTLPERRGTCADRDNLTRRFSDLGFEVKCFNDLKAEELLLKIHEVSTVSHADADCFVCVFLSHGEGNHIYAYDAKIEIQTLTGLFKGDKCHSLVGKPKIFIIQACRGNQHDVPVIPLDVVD
Sequence (P55212 194-293 limits assumed): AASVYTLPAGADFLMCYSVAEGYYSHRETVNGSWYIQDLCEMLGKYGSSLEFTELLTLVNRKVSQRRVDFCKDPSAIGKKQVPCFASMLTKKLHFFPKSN
pKi: −log10 of the molar value.

STRUCTURE: O=C(O)C[C@H](NC(=O)c1ccc(CNS(=O)(=O)c2ccc(O)c(C(=O)O)c2)nc1)C(=O)CSCc1ccccc1Cl
pKi: 6.92

###

Target: Caspase-7 (Homo sapiens, UniProt P55210)
Sequence (P55210 24-198 limits assumed): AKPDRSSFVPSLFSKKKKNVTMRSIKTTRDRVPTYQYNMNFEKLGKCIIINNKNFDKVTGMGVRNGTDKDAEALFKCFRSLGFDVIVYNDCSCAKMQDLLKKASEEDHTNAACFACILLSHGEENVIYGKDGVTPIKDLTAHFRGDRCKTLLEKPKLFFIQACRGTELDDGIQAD
Sequence (P55210 207-303 limits assumed): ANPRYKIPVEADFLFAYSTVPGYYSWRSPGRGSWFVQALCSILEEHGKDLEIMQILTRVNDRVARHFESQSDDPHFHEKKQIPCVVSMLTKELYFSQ
ATTRIBUTE_MEASURED: Ki (nM)

STRUCTURE: O=C(O)C[C@H](NC(=O)c1ccc(CNS(=O)(=O)c2ccc(O)c(C(=O)O)c2)nc1)C(=O)CSCc1ccccc1Cl
UOM: nM
RECORDED_MEASUREMENT: 90

###

Biological target: Caspase-1 (Homo sapiens, UniProt P29466)
Sequence (P29466 whole entry): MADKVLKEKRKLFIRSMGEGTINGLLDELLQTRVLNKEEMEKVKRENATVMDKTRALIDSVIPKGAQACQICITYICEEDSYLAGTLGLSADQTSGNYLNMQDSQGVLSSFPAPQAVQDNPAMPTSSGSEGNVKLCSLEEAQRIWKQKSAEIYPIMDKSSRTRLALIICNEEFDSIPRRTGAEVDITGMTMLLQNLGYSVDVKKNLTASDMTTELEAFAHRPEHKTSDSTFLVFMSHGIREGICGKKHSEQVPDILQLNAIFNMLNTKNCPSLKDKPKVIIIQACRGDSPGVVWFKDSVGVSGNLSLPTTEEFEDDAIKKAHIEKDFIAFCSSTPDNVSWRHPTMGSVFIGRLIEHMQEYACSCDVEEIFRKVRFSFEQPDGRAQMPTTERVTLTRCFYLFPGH

STRUCTURE: O=C(O)C[C@H](NC(=O)c1ccc(CNS(=O)(=O)c2ccc(O)c(C(=O)O)c2)nc1)C(=O)CSCc1ccccc1Cl
Ki (µM): 1.5

Recorded values, source BindingDB's records for doi:10.1021/jm020230j.
